Taken from patent US20250032625A1.

Target: TEAD1 in NCI-H226 cells (Homo sapiens (Human))
Sequence (P28347 whole entry): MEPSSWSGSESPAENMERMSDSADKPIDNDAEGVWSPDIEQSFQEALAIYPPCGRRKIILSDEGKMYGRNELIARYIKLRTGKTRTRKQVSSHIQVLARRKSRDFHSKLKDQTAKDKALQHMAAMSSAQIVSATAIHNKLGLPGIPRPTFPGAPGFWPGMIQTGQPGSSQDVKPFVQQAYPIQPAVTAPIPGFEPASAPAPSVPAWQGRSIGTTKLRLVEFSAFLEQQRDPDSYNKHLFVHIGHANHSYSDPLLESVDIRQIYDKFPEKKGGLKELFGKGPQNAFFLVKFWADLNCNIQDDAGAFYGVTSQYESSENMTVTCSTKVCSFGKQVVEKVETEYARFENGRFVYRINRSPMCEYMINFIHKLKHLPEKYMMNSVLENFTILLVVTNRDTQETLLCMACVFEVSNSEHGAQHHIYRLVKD
Test: TEAD degradation in NCI-H226 cell line (immunofluorescence)
Type: cell-based
Conditions: 24 hours, ranges, read-out: DC50 NCI-H226
Listed here are compounds together with their documented DC50.

The compound listed as "Cc1ncsc1-c1ccc([C@H](C)NC(=O)[C@@H]2C[C@@H](O)CN2C(=O)[C@@H](NC(=O)CCCCCC(=O)NCCOCCOCCNC(=O)c2ccc3c(c2)c2cn(C)nc2n3-c2ccc(C(F)(F)F)cc2)C(C)(C)C)cc1" has a reported DC50 of 0.1 to 1 µM

The compound listed as "CC(=O)O[C@@H]1C[C@@H](C(=O)N[C@@H](C)c2ccc(-c3scnc3C)cc2)N(C(=O)[C@@H](NC(=O)CCCCCC(=O)NCCOCCOCCNC(=O)c2ccc3c(c2)c2cn(C)nc2n3-c2ccc(C(F)(F)F)cc2)C(C)(C)C)C1" has a reported DC50 of 1 to 3 µM
